biological target: Mitogen-activated protein kinase 4 (Homo sapiens); experiment: Inhibition of ERK4 at 1 uM
Property: inhibition

Consider the reported inhibition for these compounds:
FC(F)(F)c1ccc(Cl)cc1CN1CCNc2ncc(-c3ccnc(N4CCNCC4)c3)cc21    < 50%
CN1CCN(c2ccc(-c3cnc4c(c3)N(Cc3c(F)ccc(F)c3Cl)CCN4)cn2)CC1    < 50%
CN1CCN(c2ccc(-c3cnc4c(c3)N(Cc3cc(Cl)ccc3Cl)CCN4)cn2)CC1    < 50%
CC(=O)N1CCN(c2cc(-c3cnc4c(c3)N(Cc3cc(Cl)ccc3C(F)(F)F)CCN4)ccn2)CC1    < 50%
CN1CCN(c2ccc(-c3cnc4c(c3)N(Cc3cc(F)ccc3F)CCN4)cn2)CC1    < 50%

# evaluate next
# lookup: inhibition of `CN1CCN(c2ccc(-c3cnc4c(c3)N(Cc3cc(Cl)ccc3C(F)(F)F)CCN4)cn2)CC1`
< 50%

----------
biological target: Testis-specific serine/threonine-protein kinase 1 (Homo sapiens); experiment: Inhibition of TSSK1B at 1 uM
inhibition: recorded values

Consider the reported inhibition for these compounds:
CN1CCN(c2ccc(-c3cnc4c(c3)N(Cc3c(F)ccc(F)c3Cl)CCN4)cn2)CC1    < 50%
CC(=O)N1CCN(c2cc(-c3cnc4c(c3)N(Cc3cc(Cl)ccc3C(F)(F)F)CCN4)ccn2)CC1    < 50%
CN1CCN(c2ccc(-c3cnc4c(c3)N(Cc3cc(Cl)ccc3Cl)CCN4)cn2)CC1    < 50%
FC(F)(F)c1ccc(Cl)cc1CN1CCNc2ncc(-c3ccnc(N4CCNCC4)c3)cc21    < 50%
CN1CCN(c2ccc(-c3cnc4c(c3)N(Cc3cc(F)ccc3F)CCN4)cn2)CC1    < 50%

# evaluate next
# lookup: inhibition of `CN1CCN(c2ccc(-c3cnc4c(c3)N(Cc3cc(Cl)ccc3C(F)(F)F)CCN4)cn2)CC1`
< 50%

----------
inhibition: recorded values
biological target: UniProt:P53355; experiment: Inhibition of DAPK1 at 1 uM
Sequence (P53355 whole entry, looked up): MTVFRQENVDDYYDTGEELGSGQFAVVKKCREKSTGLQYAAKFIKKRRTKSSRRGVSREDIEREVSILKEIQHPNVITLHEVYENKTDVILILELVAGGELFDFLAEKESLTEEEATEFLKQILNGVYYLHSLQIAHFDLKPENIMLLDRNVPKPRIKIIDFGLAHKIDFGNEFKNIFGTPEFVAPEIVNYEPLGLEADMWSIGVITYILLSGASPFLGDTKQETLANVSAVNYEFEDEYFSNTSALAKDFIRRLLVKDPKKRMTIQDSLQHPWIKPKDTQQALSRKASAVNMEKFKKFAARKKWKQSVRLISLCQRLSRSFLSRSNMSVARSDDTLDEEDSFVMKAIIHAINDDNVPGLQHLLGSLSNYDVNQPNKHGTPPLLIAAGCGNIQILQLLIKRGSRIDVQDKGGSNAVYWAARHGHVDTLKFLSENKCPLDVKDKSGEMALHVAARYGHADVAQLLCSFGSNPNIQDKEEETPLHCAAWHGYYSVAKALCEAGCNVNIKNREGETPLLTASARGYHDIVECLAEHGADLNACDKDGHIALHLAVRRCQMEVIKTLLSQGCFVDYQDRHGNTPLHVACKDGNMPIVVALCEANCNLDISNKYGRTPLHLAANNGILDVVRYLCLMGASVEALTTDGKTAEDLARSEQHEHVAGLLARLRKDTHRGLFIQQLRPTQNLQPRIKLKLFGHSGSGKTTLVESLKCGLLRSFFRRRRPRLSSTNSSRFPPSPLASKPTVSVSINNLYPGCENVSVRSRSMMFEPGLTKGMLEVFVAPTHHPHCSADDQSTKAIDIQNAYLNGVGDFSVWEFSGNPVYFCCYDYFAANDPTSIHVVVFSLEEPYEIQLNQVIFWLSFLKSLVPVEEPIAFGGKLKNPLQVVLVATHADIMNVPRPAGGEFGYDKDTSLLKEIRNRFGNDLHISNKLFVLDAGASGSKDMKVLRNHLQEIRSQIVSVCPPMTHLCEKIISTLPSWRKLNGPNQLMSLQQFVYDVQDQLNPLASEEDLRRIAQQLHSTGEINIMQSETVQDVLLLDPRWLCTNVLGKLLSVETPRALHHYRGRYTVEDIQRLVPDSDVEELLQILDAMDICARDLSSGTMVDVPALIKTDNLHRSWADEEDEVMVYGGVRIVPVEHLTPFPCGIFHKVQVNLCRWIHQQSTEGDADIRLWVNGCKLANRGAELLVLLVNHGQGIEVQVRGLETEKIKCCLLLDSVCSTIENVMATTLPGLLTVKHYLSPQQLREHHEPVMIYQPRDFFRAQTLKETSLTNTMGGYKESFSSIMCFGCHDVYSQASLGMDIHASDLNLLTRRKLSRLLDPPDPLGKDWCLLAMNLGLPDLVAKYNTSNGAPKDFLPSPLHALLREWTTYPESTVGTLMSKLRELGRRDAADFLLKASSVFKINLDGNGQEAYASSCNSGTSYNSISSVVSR

Consider the reported inhibition for these compounds:
CN1CCN(c2ccc(-c3cnc4c(c3)N(Cc3cc(Cl)ccc3Cl)CCN4)cn2)CC1    < 50%
CN1CCN(c2ccc(-c3cnc4c(c3)N(Cc3c(F)ccc(F)c3Cl)CCN4)cn2)CC1    < 50%

# lookup: inhibition of `CN1CCN(c2ccc(-c3cnc4c(c3)N(Cc3cc(Cl)ccc3C(F)(F)F)CCN4)cn2)CC1`
< 50%

# lookup: inhibition of `O=C(O)c1ccc(-c2cnc3c(c2)N(Cc2cc(Cl)ccc2C(F)(F)F)CCN3)cc1`
< 50%

# lookup: inhibition of `FC(F)(F)c1ccc(Cl)cc1CN1CCNc2ncc(-c3ccnc(N4CCNCC4)c3)cc21`
< 50%

# lookup: inhibition of `COC1CCN(C(=O)c2ccc(-c3cnc4c(c3)N(Cc3cc(Cl)ccc3C(F)(F)F)CCN4)cc2)CC1`
< 50%

----------
inhibition: recorded values
System: Receptor-type tyrosine-protein kinase FLT3 (Homo sapiens), P36888 [D835H]
Sequence (whole entry): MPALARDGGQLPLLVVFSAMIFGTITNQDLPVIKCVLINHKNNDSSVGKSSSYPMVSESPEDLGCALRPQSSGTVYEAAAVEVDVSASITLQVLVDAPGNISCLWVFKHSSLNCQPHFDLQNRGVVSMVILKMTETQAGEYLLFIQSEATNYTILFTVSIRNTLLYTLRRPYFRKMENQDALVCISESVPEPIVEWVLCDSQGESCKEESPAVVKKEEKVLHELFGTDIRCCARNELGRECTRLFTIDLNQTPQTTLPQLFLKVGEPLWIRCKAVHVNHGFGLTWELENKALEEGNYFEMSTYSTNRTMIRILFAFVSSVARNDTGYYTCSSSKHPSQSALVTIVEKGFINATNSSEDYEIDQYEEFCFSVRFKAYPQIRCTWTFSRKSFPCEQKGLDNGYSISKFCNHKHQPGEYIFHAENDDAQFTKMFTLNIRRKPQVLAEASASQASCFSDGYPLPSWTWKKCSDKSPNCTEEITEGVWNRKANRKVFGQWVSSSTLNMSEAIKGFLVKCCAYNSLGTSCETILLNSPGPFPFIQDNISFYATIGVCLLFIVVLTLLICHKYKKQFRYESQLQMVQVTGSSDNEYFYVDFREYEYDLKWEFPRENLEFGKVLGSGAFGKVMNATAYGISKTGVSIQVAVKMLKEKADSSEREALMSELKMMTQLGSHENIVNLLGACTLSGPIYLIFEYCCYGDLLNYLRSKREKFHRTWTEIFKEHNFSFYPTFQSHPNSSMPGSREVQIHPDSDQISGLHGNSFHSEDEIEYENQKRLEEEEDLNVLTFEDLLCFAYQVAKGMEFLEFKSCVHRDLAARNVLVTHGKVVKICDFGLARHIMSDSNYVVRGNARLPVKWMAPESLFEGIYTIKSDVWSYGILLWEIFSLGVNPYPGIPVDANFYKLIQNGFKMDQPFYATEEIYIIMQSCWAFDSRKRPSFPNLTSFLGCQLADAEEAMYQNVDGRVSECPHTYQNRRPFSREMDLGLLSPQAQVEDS
Test: Inhibition of FLT3 D835H mutant at 1 uM
Write it as a number; the unit % goes unstated.

Consider the reported inhibition for these molecules:
CC(=O)N1CCN(c2cc(-c3cnc4c(c3)N(Cc3cc(Cl)ccc3C(F)(F)F)CCN4)ccn2)CC1    81
O=C(c1ccc(-c2cnc3c(c2)N(Cc2cc(Cl)ccc2C(F)(F)F)CCN3)cc1)N1CCC(N2CCCC2)CC1    90.1
FC(F)(F)c1ccc(Cl)cc1CN1CCNc2ncc(-c3ccnc(N4CCNCC4)c3)cc21    93
CN1CCN(c2ccc(-c3cnc4c(c3)N(Cc3cc(F)ccc3F)CCN4)cn2)CC1    72.5
CN1CCN(c2ccc(-c3cnc4c(c3)N(Cc3c(F)ccc(F)c3Cl)CCN4)cn2)CC1    73

# lookup: inhibition of `CN1CCN(c2ccc(-c3cnc4c(c3)N(Cc3cc(Cl)ccc3Cl)CCN4)cn2)CC1`
80

# lookup: inhibition of `COC1CCN(C(=O)c2ccc(-c3cnc4c(c3)N(Cc3cc(Cl)ccc3C(F)(F)F)CCN4)cc2)CC1`
77.2

# lookup: inhibition of `CN1CCN(c2ccc(-c3cnc4c(c3)N(Cc3cc(Cl)ccc3C(F)(F)F)CCN4)cn2)CC1`
82
